biological target: T1, full-length PcrV.6xhis (Pseudomonas aeruginosa); test: SPR (Biacore T200), mAb captured via anti-human Fc, PcrV injected, 37 C
T1 construct: Recombinant full-length V-tip protein of the type 3 secretion system, His-tagged; also called full-length PcrV with a C-terminal hexahistidine tag
Test readout: 90 nM Ag Bound (RU)
Please give the number followed by its unit.

Use these answered entries as a reference point.
Binder: REGN3977 (antibody, V domains shown, also called Control III; REGN3977-Control III) VH: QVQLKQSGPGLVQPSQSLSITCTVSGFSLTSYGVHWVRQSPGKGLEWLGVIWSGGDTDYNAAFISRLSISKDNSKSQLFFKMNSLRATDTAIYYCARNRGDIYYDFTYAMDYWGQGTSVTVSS VL: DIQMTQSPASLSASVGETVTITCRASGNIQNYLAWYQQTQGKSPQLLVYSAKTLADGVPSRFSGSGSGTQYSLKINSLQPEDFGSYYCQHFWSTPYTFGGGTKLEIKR
90 nM Ag Bound (RU): 136 RU
//
Binder: H1H29332P (antibody, V domains shown) VH: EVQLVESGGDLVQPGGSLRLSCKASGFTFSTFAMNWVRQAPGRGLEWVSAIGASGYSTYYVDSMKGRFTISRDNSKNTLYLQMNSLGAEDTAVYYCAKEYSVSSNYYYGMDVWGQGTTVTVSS VL: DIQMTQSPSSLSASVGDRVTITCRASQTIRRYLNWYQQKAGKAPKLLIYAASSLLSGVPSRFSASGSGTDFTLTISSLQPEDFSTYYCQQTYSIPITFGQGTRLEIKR
90 nM Ag Bound (RU): 163 RU

Now take the following binder into account.
Ask: Kindly indicate its recorded 90 nM Ag Bound (RU). Item: H1H29339P (antibody, V domains shown) VH: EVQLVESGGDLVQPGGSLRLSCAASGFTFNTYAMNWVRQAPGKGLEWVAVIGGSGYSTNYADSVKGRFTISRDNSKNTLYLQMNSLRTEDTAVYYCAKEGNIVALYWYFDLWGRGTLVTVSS VL: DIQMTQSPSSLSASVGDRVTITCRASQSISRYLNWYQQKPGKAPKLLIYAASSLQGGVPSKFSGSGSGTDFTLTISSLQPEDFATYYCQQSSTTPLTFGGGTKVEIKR
Reply: 130 RU
